# system-under-test: AKT2 (Homo sapiens)
# Sequence (P31751 whole entry): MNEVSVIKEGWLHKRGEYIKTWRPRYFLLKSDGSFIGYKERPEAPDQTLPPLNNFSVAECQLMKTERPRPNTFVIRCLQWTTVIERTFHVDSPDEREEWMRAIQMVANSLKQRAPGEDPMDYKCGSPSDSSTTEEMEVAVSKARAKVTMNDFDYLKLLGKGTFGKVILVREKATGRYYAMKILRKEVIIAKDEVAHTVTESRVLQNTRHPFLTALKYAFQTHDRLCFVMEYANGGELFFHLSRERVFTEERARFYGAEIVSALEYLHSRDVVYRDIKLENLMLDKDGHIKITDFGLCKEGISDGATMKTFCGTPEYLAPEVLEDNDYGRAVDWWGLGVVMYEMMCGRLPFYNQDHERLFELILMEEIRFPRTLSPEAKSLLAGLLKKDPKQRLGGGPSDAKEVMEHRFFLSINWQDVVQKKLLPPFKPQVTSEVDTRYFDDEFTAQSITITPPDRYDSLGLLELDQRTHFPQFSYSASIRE
# assay-remarks: AKT Kinase Assay (IMAP fluorescent polarisation) vs AKT2
# experimental-setup: activated AKT2, FAM Crosstide substrate
Structures can show the parent of a compound that is named as a salt.
Consider the following molecules; for each one, report its IC50.

// below: answered molecules
molecule=NC1(c2ccc(-c3c(-c4ccccc4)oc4c(C(=O)O)cccc4c3=O)cc2)CCC1 system_under_test="AKT2 (Homo sapiens)" result="> 10000 nM"
molecule=COc1cc2oc(-c3ccccc3)c(-c3ccc(C4(N)CCC4)cc3)c(=O)c2cc1Br system_under_test="AKT2 (Homo sapiens)" result="1000 to 10000 nM"
molecule=NC1(c2ccc(-c3c(-c4ccccc4)oc4c(OCCO)nccc4c3=O)cc2)CCC1 system_under_test="AKT2 (Homo sapiens)" result="1000 to 10000 nM"
molecule="CC(C)n1cc2ccc3c(=O)c(-c4ccc(C5(N)CCC5)cc4)c(-c4ccccc4)oc3c2n1 [Example 84, hydrochloride]" system_under_test="AKT2 (Homo sapiens)" result="≤ 1000 nM"
molecule=NC1(c2ccc(-c3c(-c4ccccc4)oc4ccc(OC(F)(F)F)cc4c3=O)cc2)CCC1 system_under_test="AKT2 (Homo sapiens)" result="1000 to 10000 nM"
molecule=COc1cc2c(=O)c(-c3ccc(C4(N)CCC4)cc3)c(-c3ccccc3)oc2cc1C(N)=O system_under_test="AKT2 (Homo sapiens)" result="≤ 1000 nM"
molecule="NC1(c2ccc(-c3c(-c4ccccc4)oc4c(-c5cn[nH]c5)cccc4c3=O)cc2)CCC1 [Example 52, hydrochloride]" system_under_test="AKT2 (Homo sapiens)" result="≤ 1000 nM"
molecule=NC1(c2ccc(-c3c(-c4ccccc4)oc4cc(OC(F)(F)F)ccc4c3=O)cc2)CCC1 system_under_test="AKT2 (Homo sapiens)" result="1000 to 10000 nM"

Count: 2. Required value per item: IC50.
1. CCc1nn(C)c2c1ccc1c(=O)c(-c3ccc(C4(N)CCC4)cc3)c(-c3ccccc3)oc12 [Example 98, hydrochloride]
2. COc1ccc2c(=O)c(-c3ccc(C4(N)CCC4)cc3)c(-c3ccccc3)oc2n1 [Example 35, hydrochloride]

Data returned:
1: ≤ 1000 nM; 2: 1000 to 10000 nM

Count: 2. Required value per item: IC50.
1. N#Cc1ccc2oc(-c3ccccc3)c(-c3ccc(C4(N)CCC4)cc3)c(=O)c2c1
2. CC(C)(C#N)c1ccc(-c2c(-c3ccccc3)oc3c(ccn4c(=O)[nH]nc34)c2=O)cc1

Data returned:
["1000 to 10000 nM", "> 10000 nM"]
